Assay: growth inhibition, single agents and combos, CRL2098, cell-based, BGB or cisplatin IC20 combos, synergistic combos for chromothripsis tumors (AID 1671454);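 further: cells exposed for 96 h before readout; 0% = vehicle DMSO and 100% = killing by high DMSO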
Settings: CRL2098 osteosarcoma cells, drug combinations, at 0.5 µM, hits give high values
Can you tell me inhibition for the items I'm about to list?
Use % as the unit, but write only the number.

Problem: I have this compound here, Nc1ccn(C2CCC(CO)O2)c(=O)n1 (centres undefined) , and I need its recorded inhibition.
Result: -61.6

Problem: Given the compound C=C(C)C1CCC2(C(=O)O)CCC3(C)C(CCC4C5(C)CCC(O)C(C)(C)C5CCC43C)C12 (centres undefined) , what is its reported inhibition?
Result: -11.7

Problem: # query: inhibition of entry Cn1cc(-c2cnn3c(N)c(Br)c([C@H]4CCCNC4)nc23)cn1
Result: -2.8

Problem: Quick one: inhibition for CO[C@H]1/C=C/O[C@@]2(C)Oc3c(C)c(O)c4c(O)c(c5c(c4c3C2=O)=NC2(CCN(CC(C)C)CC2)N=5)NC(=O)/C(C)=C\C=C\[C@H](C)[C@H](O)[C@@H](C)[C@@H](O)[C@@H](C)[C@H](OC(C)=O)[C@@H]1C ?
Result: 1.32

Problem: Any idea what inhibition was measured for Cc1cc(C#N)cc(C)c1Oc1nc(Nc2ccc(C#N)cc2)nc(N)c1Br ?
Result: -46.8

Problem: Could you share which inhibition value was measured for C[C@H](NC(=O)c1ccccc1N=Cc1c(O)ccc2ccccc12)c1ccccc1 ?
Result: 5.5

Problem: Fill in the blank: the reported inhibition of O=c1[nH]c(=O)n(C2CC(O)C(CO)O2)cc1I (centres undefined) is ____.
Result: -42.2

Problem: Give its inhibition value. Item: C=C1CCC(O)CC1=CC=C1CCCC2(C)C1CCC2C(C)C=CC(C)C(C)C (centres undefined)
Result: -3.6

Problem: Which inhibition value is on record for Nc1nc(NC2CC2)cc(-c2cccc(Cl)c2Cl)n1 ?
Result: -50
